Every entry's value here was drawn from paper PMC3441732.

Target: MARV VP35 RBD (Marburg virus, UniProt P35259 205-329)
Sequence (P35259 205-329): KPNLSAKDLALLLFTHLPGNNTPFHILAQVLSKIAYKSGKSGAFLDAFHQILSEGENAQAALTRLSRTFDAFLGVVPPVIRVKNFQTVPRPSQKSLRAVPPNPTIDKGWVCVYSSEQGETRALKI
Experiment: ITC; 10 mM Tris pH 8.0, 200 mM NaCl, 2 mM TCEP ([…], and ITC); temperature not stated
Details: protein: recombinant; tags: 6xHis (pET46b), TEV-cleaved; chain copies: 4; label: 5'-32P sense strand (dot blot); none in ITC; blunt
parameter: Kd (µM)
A number alone suffices; assume µM.

// query Please list Kd recorded for the binder 18-bp blunt-ended dsRNA (dsRNA) RNA 1: AGAAGGAGGGAGGGAGGA RNA 2: UCCUCCCUCCCUCCUUCU
// result 28.6
